Consider the following compounds; for each one, report its Density.
Assay: Density measurement (Density Meter DMA 501)
Assay type: physicochemical
Conditions: 298K, atmospheric pressure
A number alone suffices; assume g/mL.

*Q* Supply reported Density belonging to this compound: CCCC[n+]1ccn2ccccc21.[Br-] [IPC4, 1-Butylimidazo[1,2-a] pyridinium bromide]
*A* 1.0310

*Q* Supply reported Density belonging to this compound: "CCCCCCCCCCCC[n+]1ccn2ccccc21.[Br-]"
*A* 1.0049

*Q* Supply reported Density belonging to this compound: CCCCCCCC[n+]1ccn2ccccc21.[Br-] [IPC8, 1-Octylimidazo[1,2-a] pyridinium bromide]
*A* 1.0094

*Q* Supply reported Density belonging to this compound: CCCCCC[n+]1ccn2ccccc21.[Br-] [IPC6, 1-Hexylimidazo[1,2-a] pyridinium bromide]
*A* 1.0102

*Q* Supply reported Density belonging to this compound: CCCCCCCCCC[n+]1ccn2ccccc21.[Br-] [IPC10, 1-Decylimidazo[1,2-a] pyridinium bromide]
*A* 1.0081

// provenance: patent US11944609B1
